All values here come from paper PMC3947748.

# measurementTarget: Cdk1/Cyclin B (Homo sapiens, UniProt P06493)
# Sequence (P14635 whole entry): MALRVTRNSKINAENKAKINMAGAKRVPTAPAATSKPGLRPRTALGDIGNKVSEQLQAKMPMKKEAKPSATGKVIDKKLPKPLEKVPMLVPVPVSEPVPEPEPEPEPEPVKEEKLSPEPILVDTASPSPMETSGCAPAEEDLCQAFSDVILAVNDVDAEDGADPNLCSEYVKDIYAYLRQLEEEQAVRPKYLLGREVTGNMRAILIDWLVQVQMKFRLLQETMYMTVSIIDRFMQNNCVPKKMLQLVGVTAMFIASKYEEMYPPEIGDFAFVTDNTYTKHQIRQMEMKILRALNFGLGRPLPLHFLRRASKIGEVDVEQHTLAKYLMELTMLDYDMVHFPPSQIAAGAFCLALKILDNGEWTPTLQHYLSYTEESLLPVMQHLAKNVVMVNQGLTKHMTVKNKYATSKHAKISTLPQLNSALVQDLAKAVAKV
# Sequence (P06493 whole entry): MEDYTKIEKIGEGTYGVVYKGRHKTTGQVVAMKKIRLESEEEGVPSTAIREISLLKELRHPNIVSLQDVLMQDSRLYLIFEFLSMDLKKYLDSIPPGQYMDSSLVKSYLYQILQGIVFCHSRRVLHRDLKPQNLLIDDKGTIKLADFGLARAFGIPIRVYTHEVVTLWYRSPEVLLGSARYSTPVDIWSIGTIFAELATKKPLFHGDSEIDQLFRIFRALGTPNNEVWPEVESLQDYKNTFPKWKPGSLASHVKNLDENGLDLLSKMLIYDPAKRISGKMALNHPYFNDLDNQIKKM
# experiment: Kinase specificity assay
measure: IC50

The recorded IC50 for entry COC[C@H]1OC(=O)c2coc3c2[C@@]1(C)C1=C(C3=O)[C@@H]2CCC(=O)[C@@]2(C)C[C@H]1OC(C)=O [Wortmannin] equals > 400 µM
